- measured on: T1, human IL-18BP (human, UniProt O95998 31-194)
- T1 construct: UniProt printed as 095998; also called hIL-18BP
- T1 sequence: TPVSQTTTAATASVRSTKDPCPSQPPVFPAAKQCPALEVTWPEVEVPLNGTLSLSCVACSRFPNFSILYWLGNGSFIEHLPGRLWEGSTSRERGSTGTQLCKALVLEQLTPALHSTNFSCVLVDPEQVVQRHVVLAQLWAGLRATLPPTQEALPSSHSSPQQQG
- test details: BLI, apparent KD

binder	unit text	Kd
SA301a HC-Y100R (antibody, V domains shown) VH: QVQLQESGPGLVKPSQTLSLTCTVSGYSITSDYNSHWIRQPPGKGLEWIGYIHYSGSTNYNPSLKSRVTISRDTSKNQFSLKLSSVTAADTAVYYCARNYGSIRVNYFDYWGQGTLVTVSS VL: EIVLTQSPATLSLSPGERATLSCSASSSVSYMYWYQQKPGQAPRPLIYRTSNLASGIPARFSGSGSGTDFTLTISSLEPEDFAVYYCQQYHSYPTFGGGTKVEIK	nM	1.32
SA301a HC-Y100G (antibody, V domains shown) VH: QVQLQESGPGLVKPSQTLSLTCTVSGYSITSDYNSHWIRQPPGKGLEWIGYIHYSGSTNYNPSLKSRVTISRDTSKNQFSLKLSSVTAADTAVYYCARNYGSIGVNYFDYWGQGTLVTVSS VL: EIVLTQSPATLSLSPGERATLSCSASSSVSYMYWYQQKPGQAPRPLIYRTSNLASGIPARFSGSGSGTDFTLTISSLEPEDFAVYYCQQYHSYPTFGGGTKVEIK	nM	0.51
SA301a HC-N100bH (antibody, name in Kabat numbering, V domains shown, IgG1 kappa) VH: QVQLQESGPGLVKPSQTLSLTCTVSGYSITSDYNSHWIRQPPGKGLEWIGYIHYSGSTNYNPSLKSRVTISRDTSKNQFSLKLSSVTAADTAVYYCARNYGSIYVHYFDYWGQGTLVTVSS VL: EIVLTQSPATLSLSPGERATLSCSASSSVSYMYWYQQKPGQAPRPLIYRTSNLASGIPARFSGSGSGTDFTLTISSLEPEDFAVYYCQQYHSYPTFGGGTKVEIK	nM	0.69
